testedSystem: mouse melanocortin-3 receptor (mouse, UniProt P33033 1-323)
Sequence (P33033 whole entry): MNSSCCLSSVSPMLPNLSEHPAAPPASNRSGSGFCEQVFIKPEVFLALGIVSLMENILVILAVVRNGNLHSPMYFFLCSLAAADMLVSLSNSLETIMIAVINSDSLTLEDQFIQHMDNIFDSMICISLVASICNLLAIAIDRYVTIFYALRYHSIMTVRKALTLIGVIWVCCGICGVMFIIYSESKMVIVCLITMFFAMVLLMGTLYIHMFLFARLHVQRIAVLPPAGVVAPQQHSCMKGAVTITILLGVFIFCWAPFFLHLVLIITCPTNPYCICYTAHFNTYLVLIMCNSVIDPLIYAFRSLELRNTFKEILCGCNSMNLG
procedureDetails: cell-based or functional assay
For each record, write down the corresponding EC50 (agonist).
Write the number in µM without appending the unit.

Prompt: Consider the binder YDHXRXNAFXY (Asp-Dpr side chain lactam bridge; Dpr; DPhe; Nal(2′); C-terminal amide (amide resin)) [SEQ ID NO:39 (Tyr-c[Asp-His-DPhe-Arg-Nal(2′)-Asn-Ala-Phe-Dpr]-Tyr)] and give its measured EC50 (agonist).
Completion: 0.00556

Prompt: Looking for the measured EC50 (agonist) of YDHXKWNAFXY (Asp-Dpr side chain lactam bridge; Dpr; DPhe; C-terminal amide (amide resin)) [SEQ ID NO:37 (Tyr-c[Asp-His-DPhe-Lys-Trp-Asn-Ala-Phe-Dpr]-Tyr)] , can you help?
Completion: 30.8

Prompt: Reported EC50 (agonist), binder YDHXPWNAFXY (Asp-Dpr side chain lactam bridge; Dpr; DPhe; C-terminal amide (amide resin)) [SEQ ID NO:36 (Tyr-c[Asp-His-DPhe-Pro-Trp-Asn-Ala-Phe-Dpr]-Tyr)] : ____
Completion: 17.3

Prompt: For the binder shown here, YDHXRWNAFXY (Asp-Dpr side chain lactam bridge; Dpr; DNal(1′); C-terminal amide (amide resin)) [SEQ ID NO:34 (Tyr-c[Asp-His-DNal(1′)-Arg-Trp-Asn-Ala-Phe-Dpr]-Tyr)] , give the reported EC50 (agonist).
Completion: 0.32
